tgt: T1, recombinant human CD3 epsilon/gamma heterodimer (human, UniProt P07766 23-126; P09693 23-116)
T1 construct: Recombinant protein in solution (200-50 nM) in the Octet assay; also called hCD3 E/G
assay_protocol: Octet BLI, mAb on FAB2G sensor, hCD3 E/G 200-50 nM; R^2 0.99
metric_name: koff (s⁻¹)
Kindly provide the numeric value in s⁻¹ only, without the unit symbol.

Illustrative cases are given below, each with its answer.
{"binder": "ABL-CD3-53 (antibody, V domains shown, Chimeric hybridoma mAb: human V, CH1, upper hinge; mouse middle hinge, CH2, CH3) VH: EVQLVESGGGLVKPGGSLRLSCAASGFTFSSYTMNWVRQAPGKGLEWVSSITTSSSYIYYADSVKGRFTISRDNAKNSLYLQMNSLRAEDTAVYYCARVTFDAFDIWGQGTMVTVSS VL: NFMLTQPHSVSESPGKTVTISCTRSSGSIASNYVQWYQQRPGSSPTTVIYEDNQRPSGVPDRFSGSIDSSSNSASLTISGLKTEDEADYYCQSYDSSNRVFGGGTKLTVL", "koff, s⁻¹": 0.00714}
{"binder": "ABL-CD3-55 (antibody, V domains shown, Chimeric hybridoma mAb: human V, CH1, upper hinge; mouse middle hinge, CH2, CH3) VH: EVQLVESGGGLVKPGGSLRLSCAASGFTFSIYSMNWVRQAPGKGLEWVSSISSGSSYIYYADSVKGRFTISRDNAKSSLFLQMNSLRAEDTAVYYCAREKRELLFDYWGQGTLVTVSS VL: NFMLTQPHSVSESPGKTVTISCTRSSGSIASNYVQWYQQRPGSSPTTVIYEDNQRPSGVPDRFSGSIDRSSNSASLTISGLKTEDEADYYCQSYDSSNRVFGGGTKLTVL", "koff, s⁻¹": 0.0894}
{"binder": "ABL-CD3-48 (antibody, V domains shown, Chimeric hybridoma mAb: human V, CH1, upper hinge; mouse middle hinge, CH2, CH3) VH: EVQLVESGGGLVKPGGSLRLSCAASGFTFSSYTMNWVRQAPGKGLEWVSSISGSGSYIYYADSVKGRFTISRDNAKNSLYLQMNSLRAEDTAVYYCAREPPTLGMDYWGQGTLVTVSS VL: NFMLTQPHSVSESPGKTVTISCTRSSGSIASNYVQWYQQRPGSSPTTVIYEDNQRPSGVPDRFSGSIDSSSNSASLTISGLKTEDEADYYCQSFDSSNRVFGGGTKLTVL", "koff, s⁻¹": 0.00179}
{"binder": "ABL-CD3-59 (antibody, V domains shown, Chimeric hybridoma mAb: human V, CH1, upper hinge; mouse middle hinge, CH2, CH3) VH: EVQLVESGGGLVKPGGSLRLSCTASGFTLSSYSMNWVRQAPGKGLEWVSSLSRSSNYIYYAVSVKGRFTISRDNAKNSLYLQMNSLRAEDTAVYYCARERWELLYFDYWGQGTLVTVSS VL: NFMLTQPHSVSESPGKTVTISCTRSSGSIASNYVQWYQQRPGSSPTTVIYEDNQRPSGVPDRFSGSIDSSSNSASLTISGLQTEDEADYYCQSYDNSIRVFGGGTKLTVL", "koff, s⁻¹": 0.00487}
{"binder": "ABL-CD3-56 (antibody, V domains shown, Chimeric hybridoma mAb: human V, CH1, upper hinge; mouse middle hinge, CH2, CH3) VH: EVQLVESGGGLVKPGGSLRLSCVASGFTFSRYSMNWVRQAPGKGLEWVSSISSSSRYTYYADSLKGRFIMSRDNAKNSLFLQMNSLRAEDTAVYYCARNLYNALDYWGQGTLVTVSS VL: FMLTQPHSVSESPGKTVTISCTRSSGSIASNYVQWYQQRPGSSPTTVIYEDNQRPSGVPDRFSGSIDSSSNSASLTISGLQTEDEADYYCQSYDSSNRVFGGGTKLTVL", "koff, s⁻¹": 0.000102}
{"binder": "ABL-CD3-47 (antibody, V domains shown, Chimeric hybridoma mAb: human V, CH1, upper hinge; mouse middle hinge, CH2, CH3) VH: EVQLVESGGGLVQPGGSLRLSCAASGFTFSRYSMNWVRQAPGKGLEWVSYISRSSTTIYYADSVKGRFTISRDNAKNSLYLQMNSLRDEDAAVYYCARERWELLYFDYWGQGTLVTVSS VL: NFMLTQPHSVSESPGKTVTISCTRSSGSIASKYVQWYQQRPGSSPTTVIYEDNQRPSGVPDRFSGSIDSSSNSASLTISGLKTEDEADYYCQSYYSNNRVFGGGTKLTVL", "koff, s⁻¹": 0.00785}
{"binder": "ABL-CD3-12 (antibody, V domains shown, Chimeric hybridoma mAb: human V, CH1, upper hinge; mouse middle hinge, CH2, CH3) VH: EVQLVESGGGLVKPGGSLRLSCAASGFTFSSYTMNWVRQAPGKGLEWVSSISRSSSYKYYADSVKGRFTISRDNAKNSLYLQMNSLRAEDTAVYYCAREPPTLGMDYWGQGTLVIVSS VL: NFMLTQPHSVSESPGKTVTISCTRSNGSITSNYVQWYQQRPGSSPTTVIYEDNQRPSGVPDRFSGSIDSSSNSASLTISGLKTEDEADYYCQSFDNSNRVFGEKTKLTVL", "koff, s⁻¹": 0.00124}
{"binder": "ABL-CD3-54 (antibody, V domains shown, Chimeric hybridoma mAb: human V, CH1, upper hinge; mouse middle hinge, CH2, CH3) VH: EVQLVESGGGLVKPGGSLRLSCAASGFTFSSYSMNWVRQAPGKGLEWVSSISRSSRYIFYADSVRGRFTISRDNAKNSLYLQMNSLRAEDTAVYYCAREKRELLFDYWGQGTLVTVSS VL: NSMLTQPHSVSESPGKTVTISCTRSSGSIASYYVQWYQQRPGSSPTTVIYEDNQRPSGVPDRFSGSIDSSSNSASLTISGLKTEDEADYYCQSFDSSNRVFGGGTKLTVL", "koff, s⁻¹": 0.00258}

Suppose we examine the binder ABL-CD3-20 (antibody, V domains shown, Chimeric hybridoma mAb: human V, CH1, upper hinge; mouse middle hinge, CH2, CH3) VH: EVQLVESGGGLVKPGGSLRLSCAASGLTFSTYSMNWVRQAPGKGLEWVSSISSSGSYVYYADSVKGRFTMSRDNAKNSLYLQMNSLRAEDTAVYYCARERRELLFDYWGQGTLVTVSS VL: NFMLTQPHSVSESPGKTVTISCTRSSGSIASNYVQWYQQRPGSSPTSVIYEDNQRPSGVPDRFSGSIDSSSNSASLTISGLKTEDEADYYCQSYDRSNRVFGGGTKLTVL ; what koff value has been reported? 0.00379

Suppose we examine the binder ABL-CD3-50 (antibody, V domains shown, Chimeric hybridoma mAb: human V, CH1, upper hinge; mouse middle hinge, CH2, CH3) VH: QVQLQQSGPGLVKPSQTLSLTCAISGDSVSSNSVAWNWIRQSPSRGLEWLGRTYSRSKWYNDYAVSVKSRITINPDTSKNQFSLELNSVTPEDTAVYYCARERKWELFLDYWGQGTLVTVSS VL: NFMLTQPHSVSESPGKTVTISCTRSSGSIASNYVQWYQQRPGISPTTVIYEDNQRPSGVPDRFSGSIDSSSNSASLTISGLKTEDEADYYCQSFDTSNVVFGGGTKLTVL ; what koff value has been reported? 0.00247
